molecular target: truncated form of human Choline kinase α1 that includes residues 75-457 (Homo sapiens, UniProt P35790); construct: made in house; test: Kinase Assay, coupled (ATP regeneration) LDH/PK assay, NADH absorbance; type: biochemical
Sequence (P35790 75-457): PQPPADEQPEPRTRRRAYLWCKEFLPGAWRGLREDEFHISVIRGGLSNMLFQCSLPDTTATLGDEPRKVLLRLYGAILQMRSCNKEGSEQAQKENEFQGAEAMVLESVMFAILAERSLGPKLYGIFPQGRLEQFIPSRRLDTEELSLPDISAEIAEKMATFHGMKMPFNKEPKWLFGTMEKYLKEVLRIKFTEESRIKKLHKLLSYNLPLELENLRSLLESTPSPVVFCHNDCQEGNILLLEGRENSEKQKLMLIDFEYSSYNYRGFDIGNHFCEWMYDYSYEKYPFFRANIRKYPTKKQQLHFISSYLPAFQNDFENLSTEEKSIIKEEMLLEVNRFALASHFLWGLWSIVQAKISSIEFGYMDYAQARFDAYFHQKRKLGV
pIC50: −log10 of the molar value.
test readout: pIC50

For this compound ( `CN1CCCN(Cc2ccc(-c3ccc(C(=O)N4CCCN(C)CC4)cc3)cc2)CC1` ), measured pIC50 is > 6.70

For this compound ( `CN1CCCN(Cc2ccc(-c3cc(F)c(CN4CCCN(C)CC4)c(F)c3)cc2)CC1` ), measured pIC50 is > 6.70

For this compound ( `CN1CCCN(Cc2ccc(-c3ccc(CN4CCCN(C)CC4)cc3)cc2)CC1` ), measured pIC50 is > 6.70

For this compound ( `CN1CCCN(Cc2ccc(-c3ccc(CN4CCCN(C)CC4)c(Cl)c3)cc2)CC1` ), measured pIC50 is > 6.70

For this compound ( `CN1CCCN(Cc2ccc(-c3ccc(CN4CCCN(C)CC4)c(F)c3F)cc2)CC1` ), measured pIC50 is > 7.00

For this compound ( `CN1CCCN(Cc2ccc(-c3ccc(C(=O)N4CCCCC4)cc3)c(C#N)c2)CC1` ), measured pIC50 is > 6.30

For this compound ( `CN1CCCN(Cc2ccc(-c3ccc(C(=O)N4CCOCC4)cc3)c(C#N)c2)CC1` ), measured pIC50 is > 5.70

For this compound ( `CN1CCCN(Cc2ccc(-c3ccc(N4CCN(C)CC4)cc3)cc2)CC1` ), measured pIC50 is > 6.70

For this compound ( `COc1ccc(-c2ccc(CN3CCCN(C)CC3)cc2)cc1` ), measured pIC50 is > 6.70

For this compound ( `CN1CCCN(Cc2ccc(-c3ccc(CNP(C)(C)=O)cc3)c(C#N)c2)CC1` ), measured pIC50 is > 6.30

For this compound ( `CN1CCCN(Cc2ccc(-c3ccc(C(F)(F)F)cc3)cc2)CC1` ), measured pIC50 is > 6.70

For this compound ( `COC(=O)c1ccc(-c2ccc(CN3CCCN(C)CC3)cc2)cc1` ), measured pIC50 is > 6.70

For this compound ( `CN1CCCN(Cc2ccc(-c3ccc(CN4CCCN(C)CC4)cc3F)cc2)CC1` ), measured pIC50 is > 6.70

For this compound ( `CN1CCCN(Cc2ccc(-c3ccc(CN4CCCN(C)CC4)cc3C#N)c(F)c2)CC1` ), measured pIC50 is > 6.70

For this compound ( `CN1CCCN(Cc2ccc(-c3ccc(CN4CCCN(C)CC4)cc3C#N)cc2)CC1` ), measured pIC50 is > 7.00

For this compound ( `CN1CCCN(Cc2ccc(-c3ccc(C(=O)N4CCC(=O)CC4)cc3)c(C#N)c2)CC1` ), measured pIC50 is > 5.70

For this compound ( `CN1CCCN(Cc2ccc(-c3ccc(C(=O)N4CCCC4)cc3)c(C#N)c2)CC1` ), measured pIC50 is > 5.70
